- TARGET OR TEST SYSTEM: T1, SegA (Sulfolobus solfataricus, UniProt Q981B3 1-220)
- T1 sequence: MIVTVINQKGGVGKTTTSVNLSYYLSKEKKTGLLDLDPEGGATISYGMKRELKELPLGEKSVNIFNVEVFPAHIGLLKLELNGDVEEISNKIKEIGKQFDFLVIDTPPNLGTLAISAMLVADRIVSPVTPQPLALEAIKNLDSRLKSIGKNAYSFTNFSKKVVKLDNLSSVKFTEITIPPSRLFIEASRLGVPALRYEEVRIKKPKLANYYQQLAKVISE
- ASSAY NOTES: fluorescence polarization
MEASURED PARAMETER: pKd
The meaning of pKd here: minus log10 of the concentration in molar units.

// query pKd value for entry 24-bp nsDNA (dsDNA) DNA 1: AGGGTGTTCCACGTGAAACAGGGA DNA 2: TCCCTGTTTCACGTGGAACACCCT
6.15
